// data source = patent US20120108501A1

Assay: Pharmacokinetics of released PEGylated protease inhibitor following P.O. administration of prodrugs in rats
Type: in vivo, male Sprague-Dawley rats
Settings: mPEG3-atazanavir in plasma after PO administration of mPEG3-ATV or of the listed prodrug, rats (n = 4-5)
Description: Pharmacokinetic analysis of protease inhibitors described herein was conducted. To evaluate the pharmacokinetics of PEGylated protease inhibitor conjugates with releasable lipophilic attachments, test compounds were administered to male Sprague-Dawley rats. At various times following test article administration, serial blood samples were collected from indwelling jugular vein catheters and transferred to micro-tubes containing 7.5 μL of 20% w/v K2EDTA as an anticoagulant. […]
The following compounds are shown together with reported Cmax Mean values.
Give your result in ng/mL as a bare value.

• COCCOCCOCCOC(=O)NC(C(=O)NC(Cc1ccccc1)C(CN(Cc1ccc(-c2ccccn2)cc1)NC(=O)C(NC(=O)OC)C(C)(C)C)OC(=O)COCCOC(=O)C(N)CC(C)C)C(C)(C)C.Cl (centres unmarked) [mPEG3-Atazanavir-CME-Leucine HCl, mPEG3-Atazanavir-CME-Leucine] = 4.39

Now examine the next entry.
Exam item: # Cmax Mean lookup, item COCCOCCOCCOC(=O)NC(C(=O)NC(Cc1ccccc1)C(CN(Cc1ccc(-c2ccccn2)cc1)NC(=O)C(NC(=O)OC)C(C)(C)C)OC(=O)COCCOC(=O)C(Cc1ccccc1)NC(=O)C(N)Cc1ccccc1)C(C)(C)C.Cl (centres unmarked) [mPEG3-atazanavir-CME-phe-phenylalanine, mPEG3-Atazanavir-CME-PhePhenylalanine]
Marked response: 6.26

====

Assay: Pharmacokinetics of PEGylated protease inhibitor prodrugs in rats
Type: in vivo, male Sprague-Dawley rats
Conditions: male, Sprague-Dawley, rat, in vivo, prodrug in plasma, read-out: t½(z) (converted)
Where a name gives a salt, the structure may show the parent alone.
Reported half-life values are given for each entry in this list.
Respond with the bare value in h.

* COCCOCCOCCOCCOCCOC(=O)N[C@H](C(=O)N[C@@H](Cc1ccccc1)[C@H](CN(Cc1ccc(-c2ccccn2)cc1)NC(=O)[C@@H](NC(=O)OC)C(C)(C)C)OC(=O)CNC(=O)[C@@H](N)C(C)C)C(C)(C)C [Val-Gly-mPEG5-Atazanavir HCl, Val-Gly-mPEG5-Atazanavir Hydrochloride] | 2.95

Exam item: What value of half-life has been recorded for this entry: COCCOCCOCCOCCOCCOC(=O)N[C@H](C(=O)N[C@@H](Cc1ccccc1)[C@H](CN(Cc1ccc(-c2ccccn2)cc1)NC(=O)[C@@H](NC(=O)OC)C(C)(C)C)OC(=O)[C@H](CC(C)C)NC(=O)[C@@H](N)CC(C)C)C(C)(C)C.Cl [Leu-Leu-mPEG5-Atazanavir HCl, Leu-Leu-mPEG5-Atazanavir Hydrochloride]
Marked response: 3.6

Exam item: Returns the measured half-life for the input compound. Input: COCCOCCOCCOC(=O)N[C@H](C(=O)N[C@@H](Cc1ccccc1)[C@H](CN(Cc1ccc(-c2ccccn2)cc1)NC(=O)[C@@H](NC(=O)OC)C(C)(C)C)OC(=O)[C@H](Cc1ccccc1)NC(=O)[C@@H](N)Cc1ccccc1)C(C)(C)C [Phe-Phe-mPEG3-Atazanavir, Phe-Phe-mPEG3-Atazanavir Hydrochloride]
Marked response: 8.31

====

Assay: Pharmacokinetics of released PEGylated protease inhibitor following P.O. administration of prodrugs in rats
Assay type: in vivo, male Sprague-Dawley rats
Conditions: mPEG5-atazanavir in plasma after PO administration of mPEG5-ATV or of the listed prodrug, rats (n = 4-5)
Test readout: Cmax Mean (ng/mL)
// units = ng/mL; emit number, no label

Guide cases for Cmax Mean, answers given:
* COCCOCCOCCOCCOCCOC(=O)NC(C(=O)NC(Cc1ccccc1)C(CN(Cc1ccc(-c2ccccn2)cc1)NC(=O)C(NC(=O)OC)C(C)(C)C)OC(=O)COCCOC(=O)C(N)CC(C)C)C(C)(C)C.Cl (stereo not shown) [mPEG5-Atazanavir-CME-Leucine HCl, mPEG5-Atazanavir-CME-Leucine] | 2.88
* CCOC(=O)O[C@@H](CN(Cc1ccc(-c2ccccn2)cc1)NC(=O)[C@@H](NC(=O)OC)C(C)(C)C)[C@H](Cc1ccccc1)NC(=O)[C@@H](NC(=O)OCCOCCOCCOCCOCCOC)C(C)(C)C.Cl [mPEG5-Atazanavir - Ethyl Carbonate HCl, mPEG5-Atazanavir Ethyl Carbonate] | 16.7
* COCCOCCOCCOCCOCCOC(=O)NC(C(=O)NC(Cc1ccccc1)C(CN(Cc1ccc(-c2ccccn2)cc1)NC(=O)C(NC(=O)OC)C(C)(C)C)OC(=O)C(N)C(C)C)C(C)(C)C.Cl [mPEG5-ATV-L-valine, mPEG5-Atazanavir-L-valine HCl] | 1.09

Could you now look at the following molecule, please?
Exam item: Which Cmax Mean value is on record for COCCOCCOCCOCCOCCOC(=O)N[C@H](C(=O)N[C@@H](Cc1ccccc1)[C@H](CN(Cc1ccc(-c2ccccn2)cc1)NC(=O)[C@@H](NC(=O)OC)C(C)(C)C)OC(=O)[C@H](CC(C)C)NC(=O)[C@@H](N)CC(C)C)C(C)(C)C.Cl [Leu-Leu-mPEG5-Atazanavir HCl, Leu-Leu-mPEG5-Atazanavir Hydrochloride] ?
Marked response: 14.1
